Test system: HeLa Kyoto
ASSAY PROCEDURE: thermal stability score vs G1/S (z-score of summed log2 fold changes over temperatures); higher = more thermally stable than in G1/S
CONDITION DETAILS: cell cycle stage: mitosis
Readings of thermal stability score for the listed sequences
MEASURED METRIC: thermal stability score

SEQUENCE DATA: MASSEQAEQPSQPSSTPGSENVLPREPLIATAVKFLQNSRVRQSPLATRRAFLKKKGLTDEEIDMAFQQSGTAADEPSSLGPATQVVPVQPPHLISQPYSPAGSRWRDYGALAIIMAGIAFGFHQLYKKYLLPLILGGREDRKQLERMEAGLSELSGSVAQTVTQLQTTLASVQELLIQQQQKIQELAHELAAAKATTSTNWILESQNINELKSEINSLKGLLLNRRQFPPSPSAPKIPSWQIPVKSPSPSSPAAVNHHSSSDISPVSNESTSSSPGKEGHSPEGSTVTYHLLGPQEEGEGVVDVKGQVRMEVQGEEEKREDKEDEEDEEDDDVSHVDEEDCLGVQREDRRGGDGQINEQVEKLRRPEGASNESERD [PEX14]
RECORDED VALUE: 1.36
--
SEQUENCE DATA: MRKVVLITGASSGIGLALCKRLLAEDDELHLCLACRNMSKAEAVCAALLASHPTAEVTIVQVDVSNLQSVFRASKELKQRFQRLDCIYLNAGIMPNPQLNIKALFFGLFSRKVIHMFSTAEGLLTQGDKITADGLQEVFETNVFGHFILIRELEPLLCHSDNPSQLIWTSSRSARKSNFSLEDFQHSKGKEPYSSSKYATDLLSVALNRNFNQQGLYSNVACPGTALTNLTYGILPPFIWTLLMPAILLLRFFANAFTLTPYNGTEALVWLFHQKPESLNPLIKYLSATTGFGRNYIMTQKMDLDEDTAEKFYQKLLELEKHIRVTIQKTDNQARLSGSCL [HSD17B7]
RECORDED VALUE: -0.53

---

Documented solubility in G1/S (log2) across a set of substances
System: HeLa Kyoto
ASSAY PROCEDURE: solubility in G1/S (NP-40 vs SDS abundance) (log2 ratio); higher = more soluble
CONDITION DETAILS: cell cycle stage: G1/S

SUBSTANCE: ARHGEF5
ASSAYED TARGET: HeLa Kyoto
solubility in G1/S (log2): 0.0254
--
SUBSTANCE: MTTTTTFKGVDPNSRNSSRVLRPPGGGSNFSLGFDEPTEQPVRKNKMASNIFGTPEENQASWAKSAGAKSSGGREDLESSGLQRRNSSEASSGDFLDLKGEGDIHENVDTDLPGSLGQSEEKPVPAAPVPSPVAPAPVPSRRNPPGGKSSLVLG [HN1]
ASSAYED TARGET: HeLa Kyoto
solubility in G1/S (log2): -0.248
--
SUBSTANCE: MADGQMPFSCHYPSRLRRDPFRDSPLSSRLLDDGFGMDPFPDDLTASWPDWALPRLSSAWPGTLRSGMVPRGPTATARFGVPAEGRTPPPFPGEPWKVCVNVHSFKPEELMVKTKDGYVEVSGKHEEKQQEGGIVSKNFTKKIQLPAEVDPVTVFASLSPEGLLIIEAPQVPPYSTFGESSFNNELPQDSQEVTCT [HSPB8]
ASSAYED TARGET: HeLa Kyoto
solubility in G1/S (log2): 0.653
--
SUBSTANCE: MSQTAMSETYDFLFKFLVIGNAGTGKSCLLHQFIEKKFKDDSNHTIGVEFGSKIINVGGKYVKLQIWDTAGQERFRSVTRSYYRGAAGALLVYDITSRETYNALTNWLTDARMLASQNIVIILCGNKKDLDADREVTFLEASRFAQENELMFLETSALTGENVEEAFVQCARKILNKIESGELDPERMGSGIQYGDAALRQLRSPRRAQAPNAQECGC [RAB4A]
ASSAYED TARGET: HeLa Kyoto
solubility in G1/S (log2): 0.0401
--
SUBSTANCE: MSEVSCKKRDDYLEWPEYFMAVAFLSAQRSKDPNSQVGACIVNSENKIVGIGYNGMPNGCSDDVLPWRRTAENKLDTKYPYVCHAELNAIMNKNSTDVKGCSMYVALFPCNECAKLIIQAGIKEVIFMSDKYHDSDEATAARLLFNMAGVTFRKFIPKCSKIVIDFDSINSRPSQKLQ [DCTD]
ASSAYED TARGET: HeLa Kyoto
solubility in G1/S (log2): 0.419
